B1: TPR 5TU (parent)
chain: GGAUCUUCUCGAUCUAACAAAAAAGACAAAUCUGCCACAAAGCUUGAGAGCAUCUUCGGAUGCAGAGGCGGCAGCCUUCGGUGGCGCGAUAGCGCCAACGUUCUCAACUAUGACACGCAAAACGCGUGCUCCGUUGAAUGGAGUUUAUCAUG

# Variants of: B1
# Experiment summary: polymerase ribozyme fitness, log enrichment relative to wild type (log ratio); higher = more active; in vitro selection for triplet polymerase activity
Fewer inactive variants are shown than the library holds.
Measure: polymerase ribozyme fitness (log ratio)
Please state the value as a number alone, without comment.

Return the recorded polymerase ribozyme fitness (log ratio) value; entry: U55G C93U
-1.83

# return recorded polymerase ribozyme fitness (log ratio) for entry A52G A107C
-3.09

Return value of polymerase ribozyme fitness (log ratio) for input C54U C79U G92U C95U G141C , no commentary.
-3.77

Indicate the recorded polymerase ribozyme fitness (log ratio) value for this variant: C72U G143C
-3.23

Supply polymerase ribozyme fitness (log ratio) value. Item: U13C C27U G50C G92C
-4.02

Please report polymerase ribozyme fitness (log ratio) for the following variant: G84C A121U A122C
-1.63

Report measured polymerase ribozyme fitness (log ratio); entry is A17C A89U
0.471

Write down polymerase ribozyme fitness (log ratio) measured for item U6A C93A
-2.58

Quote polymerase ribozyme fitness (log ratio) reported for G83U G126A please.
-0.669

Tell me polymerase ribozyme fitness (log ratio) reported for G34U G141C
-2.78

Consider the variant U56A A113G and give its recorded polymerase ribozyme fitness (log ratio).
-1.32

State its polymerase ribozyme fitness (log ratio): A60G G92A C96U A121C
-2.75

Write down polymerase ribozyme fitness (log ratio) measured for item G48C G50U G92C U145G
-4.11

Read the entry C38U A47C U53A A142C and write its reported polymerase ribozyme fitness (log ratio).
-3.39

State its polymerase ribozyme fitness (log ratio): G25U G86A C105U
-3.5

For the variant C93G A150G , give its measured polymerase ribozyme fitness (log ratio) value.
-4.14

State its polymerase ribozyme fitness (log ratio) for this variant: C27U G50C G141A
-4.12

Supply measured polymerase ribozyme fitness (log ratio) of C116U A121U G124U in your reply.
-2.02

Item G11A C69U C87U G92C A150G : provide polymerase ribozyme fitness (log ratio)
-2.89

Return polymerase ribozyme fitness (log ratio) (reported value) for this variant: A19C C38A C57A G80U C95U C116G
-1.83

Look up and report measured polymerase ribozyme fitness (log ratio) for this entry: G81A A91G C99G A120C
-4

Report measured polymerase ribozyme fitness (log ratio); entry is C51U U56A A73U U78G A91U G141C G152A
-3.97

State its polymerase ribozyme fitness (log ratio) for this variant: A91G
-2.77

Return reported polymerase ribozyme fitness (log ratio). Input variant: A22U G58C G92U G124C
-0.925

Given C114G A119G , respond with its polymerase ribozyme fitness (log ratio).
-2.84

Give polymerase ribozyme fitness (log ratio) for U55G C85G C132U
-2.9

Tell me polymerase ribozyme fitness (log ratio) reported for A17C A37C C93G
-2.89

Look up polymerase ribozyme fitness (log ratio) of G84U G117A and report it.
-2

Kindly indicate its recorded polymerase ribozyme fitness (log ratio). Item: G46U A52G C93G
-4.03

Give polymerase ribozyme fitness (log ratio) for the following variant: U53G G117C A137G
-2.86

Report measured polymerase ribozyme fitness (log ratio); entry is A22U U56A G92A
-3.22

Answer with the recorded polymerase ribozyme fitness (log ratio) for the variant listed here: A26C C93A
-3.21

Give the reported polymerase ribozyme fitness (log ratio) for this variant. C54A C99A G141U
-2.47

Report polymerase ribozyme fitness (log ratio) for A73U G86U
-4.19

Specify reported polymerase ribozyme fitness (log ratio) for the variant shown: G25U C54A G80A
-4.05

Please report polymerase ribozyme fitness (log ratio) for the following variant: A47U C85U
-0.698

Determine its reported polymerase ribozyme fitness (log ratio): C35U C129U
-0.479

Report polymerase ribozyme fitness (log ratio) for A19C U53A G58A
0.679

Specify reported polymerase ribozyme fitness (log ratio) for the variant shown: C69A C85G A121C
-3.43

State its polymerase ribozyme fitness (log ratio) for this variant: U15C A40C C93A C95U C116A A121U
-1.18

Respond only with polymerase ribozyme fitness (log ratio) recorded for U15C A16C C85U C118A
-2.79

Please list polymerase ribozyme fitness (log ratio) recorded for the variant G25A C54U C96U A150U
-0.00287

Return the recorded polymerase ribozyme fitness (log ratio) value; entry: C38G U146C
-0.518

Please give the documented polymerase ribozyme fitness (log ratio) of C5A A41G G58A A60C G84A A106U C131U U146A
-3.76

Provide only the value of recorded polymerase ribozyme fitness (log ratio) for C14A A16C A19U U82A G83U C149U
-3.89
